SYSTEM NAME: hP2X3 (human purinergic P2X receptor subtype 3) (Homo sapiens (Human), UniProt P56373)
Sequence (P56373 whole entry): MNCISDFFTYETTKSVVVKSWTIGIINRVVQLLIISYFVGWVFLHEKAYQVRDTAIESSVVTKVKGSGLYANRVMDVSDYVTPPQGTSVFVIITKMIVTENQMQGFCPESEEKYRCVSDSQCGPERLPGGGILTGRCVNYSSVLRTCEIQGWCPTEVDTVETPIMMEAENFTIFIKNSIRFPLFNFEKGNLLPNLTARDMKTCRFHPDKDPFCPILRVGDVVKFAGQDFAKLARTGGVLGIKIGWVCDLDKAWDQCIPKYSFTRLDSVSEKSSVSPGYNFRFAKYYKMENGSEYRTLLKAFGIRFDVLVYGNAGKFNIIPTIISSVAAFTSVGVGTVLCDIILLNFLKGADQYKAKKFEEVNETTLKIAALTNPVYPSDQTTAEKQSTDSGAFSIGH
PROTOCOL: FLIPR calcium assay, hP2X3 expressed in HEK293 cells
Assay type: cell-based
CONDITION NOTES: read-out: P2X3 IC50
pIC50: −log10 of the molar value.
ENDPOINT: pIC50

# count of solved cases: 3
Kindly note: hP2X3 (human purinergic P2X receptor subtype 3) (Homo sapiens (Human), UniProt P56373), COC(=O)N1CCC[C@@H](Cc2c(-c3c(F)cc(S(N)(=O)=O)cc3F)nc3cc(Cl)ccn23)C1 [Compound 188] , pIC50 value reported: 8.05

Record COC(=O)N1CCO[C@@H](Cc2c(-c3c(F)cc(NC(C)=O)cc3F)nc3cc(C)ccn23)C1 [Compound 2] has hP2X3 (human purinergic P2X receptor subtype 3) (Homo sapiens (Human), UniProt P56373) pIC50 equal to > 8.00

Here CCC(=O)N1CCO[C@@H](Cc2c(-c3c(F)cc(NC(C)=O)cc3F)nc3cc(C(F)F)ccn23)C1 [Compound 157] was tested on hP2X3 (human purinergic P2X receptor subtype 3) (Homo sapiens (Human), UniProt P56373), and its pIC50 came to > 8.00

Quick one: give me pIC50 for each item below, same order please.
1. C=CC(=O)Nc1cc(F)c(-c2nc3cc(C)ccn3c2C[C@H]2CN(C(=O)OC)CCO2)c(F)c1 [Compound 87]
2. COC(=O)N1CCO[C@@H](Cc2c(-c3cc(F)c(S(N)(=O)=O)cc3Cl)nc3cc(C)ccn23)C1 [Compound 180]
3. COC(=O)N1CCO[C@@H](Cc2c(-c3c(F)cc(NC(=O)C4CCC(C(=O)O)CC4)cc3F)nc3cc(C)ccn23)C1 (stereo partly shown) [Compound 82]

A.
["6.70 to 7.30", 9.70, "7.30 to 8.00"]

I would be grateful if you could provide pIC50 for each of the following entries.
1. CC(=O)N1CCO[C@@H](Cc2c(-c3c(F)cc(S(N)(=O)=O)cc3F)nc3cc(Cl)ccn23)C1 [Compound 174]
2. COC(=O)N1CCO[C@@H](Cc2c(-c3c(F)cc(S(N)(=O)=O)cc3F)nc3cc(C)ccn23)C1 [Compound 171]
3. CC(=O)N1CCO[C@@H](Cc2c(-c3c(F)cc(-c4nnc[nH]4)cc3F)nc3cc(Cl)ccn23)C1 [Compound 166]
4. COC(=O)N1CCO[C@@H](Cc2c(-c3ccc(S(N)(=O)=O)cc3Cl)nc3cc(Cl)ccn23)C1 [Compound 178]
5. COC(=O)N1CCO[C@@H](Cc2c(-c3c(F)cc(NC(=O)CC4(C(=O)O)CC4)cc3F)nc3cc(C)ccn23)C1 [Compound 95]
6. COC(=O)N1CCO[C@@H](Cc2c(-c3c(F)cc(NC(=O)CC4(C(=O)O)CC4)cc3F)nc3cc(C)ccn23)C1 [Compound 61]

A.
[8.80, 8.68, "> 8.00", 10.00, "7.30 to 8.00", "> 8.00"]

Considering COC(=O)N1CCO[C@@H](Cc2c(-c3c(F)cc(-n4cc(OC)cn4)cc3F)nc3cc(C)ccn23)C1 [Compound 129] , its pIC50 with hP2X3 (human purinergic P2X receptor subtype 3) (Homo sapiens (Human), UniProt P56373) was recorded as 7.30 to 8.00

----------
SYSTEM NAME: hP2X3 (human purinergic P2X receptor subtype 3) (Homo sapiens (Human), UniProt P56373)
PROTOCOL: FLIPR calcium assay, hP2X3 expressed in HEK293 cells
Assay type: cell-based
CONDITION NOTES: read-out: P2X3 IC50
For each record, write down the corresponding IC50.

Some molecules with known IC50 results, for comparison:
Tested system hP2X3 (human purinergic P2X receptor subtype 3) (Homo sapiens (Human), UniProt P56373); IC50 recorded for COC(=O)N1CCO[C@@H](Cc2c(-c3c(F)cc(-n4cncn4)cc3F)nc3cc(C)ccn23)C1 was < 0.01 µM

// molecule COC(=O)N1CCO[C@@H](Cc2c(-c3c(F)cc(-n4cnc(N)c4)cc3F)nc3cc(C)ccn23)C1 , assay hP2X3 (human purinergic P2X receptor subtype 3) (Homo sapiens (Human), UniProt P56373), IC50 value: 0.01 to 0.05 µM

Record COC(=O)N1CCO[C@@H](Cc2c(-c3c(F)cc(N4C=CCC4=O)cc3F)nc3cc(C)ccn23)C1 has hP2X3 (human purinergic P2X receptor subtype 3) (Homo sapiens (Human), UniProt P56373) IC50 equal to 0.01 to 0.05 µM

Test item COC(=O)N1CCO[C@@H](Cc2c(-c3c(F)cc(N4C(=O)C=CC4=O)cc3F)nc3cc(C)ccn23)C1 ; hP2X3 (human purinergic P2X receptor subtype 3) (Homo sapiens (Human), UniProt P56373); reported IC50 was 0.01 to 0.05 µM

COC(=O)N1CCO[C@@H](Cc2c(-c3c(F)cc(C4(N)COC4)cc3F)nc3cc(C)ccn23)C1 tested on hP2X3 (human purinergic P2X receptor subtype 3) (Homo sapiens (Human), UniProt P56373) gave IC50: 0.01 to 0.05 µM

For every item below, please supply its IC50.
1. Cc1ccn2c(Cc3cc(C#N)ccn3)c(-c3c(F)cc(S(N)(=O)=O)cc3F)nc2c1
2. COC(=O)N1CCO[C@@H](Cc2c(-c3c(F)cc(NC(=O)CCC(C)(C)O)cc3F)nc3cc(C)ccn23)C1
3. COC(=O)N1CCO[C@@H](Cc2c(-c3c(F)cc(-c4nc(C#N)c[nH]4)cc3F)nc3cc(C)ccn23)C1
4. COC(=O)N1CCO[C@@H](Cc2c(-c3c(F)cc(S(N)(=O)=O)cc3Cl)nc3cc(C)ccn23)C1
5. COC(=O)N1CCO[C@@H](Cc2c(-c3c(F)cc(NCCCC(N)=O)cc3F)nc3cc(C)ccn23)C1

A.
0.065 µM
0.01 to 0.05 µM
< 0.01 µM
0.0011 µM
< 0.01 µM

----------
Answer each item with its documented CC50 at 48 h.
PROTOCOL: In vitro cytotoxicity assay, CCK-8 method
Format: cell-based
CONDITION NOTES: human, HepG2 cells
Protocol: In vitro cytotoxicity assay for the compounds disclosed herein was performed in HepG2 cells using the CCK-8 method. HepG2 cells (Beina Bio) in the logarithmic growth phase were collected, the concentration of cell suspension was adjusted, and then the cells were plated on a 96-well cell culture plate at 50,000 cells/well. […] Absorbance at OD450nm was measured for each well on a microplate reader, and CC50 value of each compound was analyzed and calculated.

Memo: COC(=O)Nc1cc(F)c(-c2nc3cc(C)ccn3c2C[C@H]2CN(C(=O)OC)CCO2)c(F)c1 , reported CC50 at 48 h: 59.3 µM

Need CC50 at 48 h for each of these molecules.
1. COC(=O)N1CCO[C@@H](Cc2c(-c3c(F)cc(-c4ccccn4)cc3F)nc3cc(C)ccn23)C1
2. CC(=O)N1CCO[C@@H](Cc2c(-c3c(F)cc(-n4ccnc4)cc3F)nc3cc(Cl)ccn23)C1

A.
1: 51 µM; 2: > 100 µM

For every item below, please supply its CC50 at 48 h.
1. COC(=O)N1CCO[C@@H](Cc2c(-c3c(F)cc(-c4cccs4)cc3F)nc3cc(C)ccn23)C1
2. COC(=O)N1CCO[C@@H](Cc2c(-c3c(F)cc(-c4cccn4C)cc3F)nc3cc(C)ccn23)C1
3. COC(=O)N1CCO[C@@H](Cc2c(-c3c(F)cc(-c4ncco4)cc3F)nc3cc(C)ccn23)C1
4. CC(=O)N1CCO[C@@H](Cc2c(-c3c(F)cc(-c4nnc[nH]4)cc3F)nc3cc(Cl)ccn23)C1

A.
1: 52.7 µM; 2: 66.5 µM; 3: 15.8 µM; 4: > 100 µM

Could you report CC50 at 48 h for every entry in the following list?
1. COC(=O)N1CCO[C@@H](Cc2c(-c3c(F)cc(NC(C)=O)cc3F)nc3cc(C)ccn23)C1
2. CC(=O)N1CCO[C@@H](Cc2c(-c3c(F)cc(S(N)(=O)=O)cc3F)nc3cc(Cl)ccn23)C1
3. COC(=O)N1CCO[C@@H](Cc2c(-c3cc(F)c(S(N)(=O)=O)cc3Cl)nc3cc(Cl)ccn23)C1

A.
1. 124 µM
2. > 200 µM
3. 138 µM

----------
PROTOCOL: In vitro cytotoxicity assay, CCK-8 method
Assay type: cell-based
CONDITION NOTES: human, HepG2 cells
Field: CC50 at 48 h. Provide a value for each of the molecules that follow.

Here is how some molecules turned out for CC50 at 48 h.
Memo: CC(=O)N1CCO[C@@H](Cc2c(-c3c(F)cc(-c4nnc[nH]4)cc3F)nc3cc(C)ccn23)C1 , reported CC50 at 48 h: > 100 µM

Form field CC50 at 48 h, entry COC(=O)N1CCO[C@@H](Cc2c(-c3c(F)cc(-c4cc[nH]n4)cc3F)nc3cc(C)ccn23)C1 : 52.6 µM

Measured CC50 at 48 h, CC(=O)N1CCO[C@@H](Cc2c(-c3c(F)cc(-n4ccnc4)cc3F)nc3cc(C)ccn23)C1 : > 100 µM

// next entry
What the record says about COC(=O)N1CCO[C@@H](Cc2c(-c3cnc(-n4cccn4)cc3C)nc3cc(C)ccn23)C1 : CC50 at 48 h is > 100 µM
